# credit: the nanobody polyreactivity screen of Harvey et al. (2022)

Assay: yeast display, Sf9 membrane polyspecificity reagent, FACS + sequencing; frameworks hold sequencing errors
readout-label: polyreactivity (PSR sort gate)

Previously resolved entries follow.
QVQLVESGGCLVQAGGSLRLSCAASGYTFLYNAMGWYRQAPGKERELVATNTRGGSTNYADSVKGRFTISRDNAKNTVYLQMYSLKPEDTAVYYCNKEAAPLGFVPSYYGRDYWGHGTQVTVSS; low polyreactivity
QVQLVESGGGLVQAGGSLRLSCAASGFTFDYYAMGWYRQAPGKERELVAAISRRGTSTYYADSVKGRFTISRDNAKNTVYLQMYSLKPEDTAVYYCNAVTSSFYNRDSDYWGQGTQVTVSS; high polyreactivity
QVQLVESGGGLVQAGGSLRLSCAASGSSFSSYAMGRYRQAPAKERELVASNNIGGSTNYADSVKGRFTISRDNAKITVYLHMNSLKPEDTAVYSCNAVGYNVGGEGDYWGQGTQVTVSS; high polyreactivity
QVQLQESGGGLVQAGGSLRLSCAASGNISPQLYMGWYRQAQGKEREFVAAIAEGSTTYYAESVKGRFTISRDDAKNTVYLQINSLKSEDTAVYYCAARYENAESFYYWGQGSQVTVSS; high polyreactivity
QVQLVESGGGLVQAGGSLRLSCAASGGIFGVYAMGWYRQAPGKERELVAAISQSDTSTYYADSVKGRFTISRDNAKNTVYLQMNSLKPEDTAVYYCAAEYYLDYYTWFDYWGQGTQVTVSS; high polyreactivity
QVQLVESGGGLVQAGGSLRLSCAASGSIFDDYAMGWYRQAPGKERELVAAISSSGTSTYYADSVKGRFTISRDNAKNTVYLQMNSLKPEDTAVYYCAARSAILKSGYLMDYWGQGTQVTVSS; low polyreactivity
QVQLVESGGGLVQAGGSLRLSCAASGSIFSYYAMGWYRQAPGKERELFADINLDDGRTYYADSVKGRFTISRDNAKNTVYLQMNSLKPEDTAVYYCAADEFYSFRYLFGPTFDYWGQGTQVTVSS; high polyreactivity
QVQLVESGGGLVQAGGSLRLSCAASGSTFVRYAMGWYRQAPGKERELVAAISKSGGSTYYADSVKGRFTISRDNAKNTVYLQMNSLKPEDTAVYYCNADVYKNSKFRIMGYWGQGTQVTVSS; high polyreactivity

Using known records, supply polyreactivity (PSR sort gate) for QVQLQESGGGLVKAGGSLRLSCAASGNISPRDAMGWYRQAPGEERDLVASNAYSAITYYADCVKGRYTISRDNAKNTVYLQINSLKPEDTEVYYCAVYQFTYPVFPAYWGQGTQVTVSS low polyreactivity

Using known records, supply polyreactivity (PSR sort gate) for QVQLVESGGGLVQAGGSLRLSCAASGSTYYYYAMGWYRQAPGKERELVASIRSGGNTNYADSVKGRFTISRDNAKNTVYLQMKSLIPEDTAVYYCASRYMGSYSGGNYWGQVTQVTVSS low polyreactivity

Using known records, supply polyreactivity (PSR sort gate) for HVQLVESGGGLVQAGGSLRLSCAASGFIGIYALGWYRQAPGKERELVAAITTSGGRTYYADSVKGRFTISRDNAKNTVYLQMNSLKPEDTAVYYCAAPWRLFSLYDYWGQGTQVTVSS low polyreactivity
